experiment: Oral bioavailability in beagle dog at 0.5 mg/kg after 0.25 to 24 hrs by LC-MS/MS analysis; format: ADME, organism-based, Canis lupus familiaris; conditions: in vivo
Outcome Measure: bioavailability (%)
Just the number please, in %, no unit attached.

Lab note: CC(C)(C)C(=O)NCc1ccc(Cl)c(C(=O)Nc2ncc[nH]2)c1 gave bioavailability of 60

====

target: Cyclooxygenase (Homo sapiens) (UniProt P35354+P23219); assay: Inhibition of COX in human A549 cells assessed as reduction in PGE2 production at 10 uM; type: cell-based
Active and inactive are the calls of the source. The rule behind the calls is not given here.
Outcome Measure: inhibition

CCC(C)(C)C(=O)NCc1ccc(Cl)c(C(=O)Nc2ncc[nH]2)c1 | inactive
CC(C)(C)C(=O)NCc1ccc(C(F)F)c(C(=O)Nc2ncc[nH]2)c1 | inactive
Cc1cc(Cl)c(C(=O)Nc2ncc[nH]2)cc1CNC(=O)C(C)C | inactive
CC(C)(C)C(=O)NCc1ccc(C(F)(F)F)c(C(=O)Nc2ncc[nH]2)c1 | inactive
CC(C)(C)C(=O)NCc1ccc(Br)c(C(=O)Nc2ncc[nH]2)c1 | inactive

Lab note: CC(C)C(=O)NCc1cc(C(=O)Nc2ncc[nH]2)c(Cl)cc1F gave inhibition of inactive

Lab note: Cc1ccc(CNC(=O)C(C)(C)C)cc1C(=O)Nc1ncc[nH]1 gave inhibition of inactive

Lab note: CC(C)C(=O)NCc1ccc(C(F)F)c(C(=O)Nc2ncc[nH]2)c1 gave inhibition of inactive

Lab note: CC(C)C(=O)NCc1ccc(Cl)c(C(=O)Nc2ncc[nH]2)c1 gave inhibition of inactive

Lab note: CC(C)(C)C(=O)NCc1ccc(Cl)c(C(=O)Nc2ncc[nH]2)c1 gave inhibition of inactive

Lab note: CC[C@H](C)C(=O)NCc1ccc(C(F)F)c(C(=O)Nc2ncc[nH]2)c1 gave inhibition of inactive

====

test: Clearance in beagle dog at 2 mg/kg,po or 0.5 mg/kg, iv after 0.25 to 24 hrs by LC-MS/MS analysis; type: ADME, organism-based, Canis lupus familiaris; conditions: in vivo
Outcome Measure: clearance (mL/min/kg)
Just the number please, in mL/min/kg, no unit attached.

Lab note: CC(C)C(=O)NCc1ccc(C(F)F)c(C(=O)Nc2ncc[nH]2)c1 gave clearance of 26.1

====

molecular target: CYP3A4 (Homo sapiens, UniProt P08684); experiment: Inhibition of microsomal CYP3A4 (unknown origin) using bufuralol/midazolam/diclofinac as substrate assessed as 1-hydroxybufuralol maleate-d9/alpha-hydroxymidazolam-d4/[13C6]-4-hydroxydiclofinac formation at 10 uM pre-incubated for 10 mins before NADPH addition by LC-MS/MS analysis; format: ADME; settings: microsomes, probe bufuralol/midazolam/diclofinac
Sequence (P08684 whole entry): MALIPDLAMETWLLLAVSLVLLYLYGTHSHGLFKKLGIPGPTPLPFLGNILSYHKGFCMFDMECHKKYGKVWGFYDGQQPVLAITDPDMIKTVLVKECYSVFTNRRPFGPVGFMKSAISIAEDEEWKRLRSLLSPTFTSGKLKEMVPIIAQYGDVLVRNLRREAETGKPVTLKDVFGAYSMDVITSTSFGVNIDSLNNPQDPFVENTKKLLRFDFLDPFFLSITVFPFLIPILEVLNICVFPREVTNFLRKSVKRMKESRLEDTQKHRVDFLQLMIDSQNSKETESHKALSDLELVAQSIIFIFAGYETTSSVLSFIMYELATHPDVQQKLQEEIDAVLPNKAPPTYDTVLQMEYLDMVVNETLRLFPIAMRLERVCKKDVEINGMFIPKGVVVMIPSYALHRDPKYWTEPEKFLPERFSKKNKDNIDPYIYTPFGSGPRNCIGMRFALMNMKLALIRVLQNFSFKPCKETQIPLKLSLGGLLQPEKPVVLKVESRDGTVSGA
Outcome Measure: inhibition at 10 µM (%)
Just the number please, in %, no unit attached.

Before answering, review these 5 worked examples.
N#Cc1cccc(C#N)c1-c1nc2c3ccc(Cl)cc3c3ccccc3c2[nH]1 | 32
CC(C)C(=O)NCc1ccc(C(F)F)c(C(=O)Nc2ncc(-c3ccc(Cl)cc3)[nH]2)c1 | 44
Cc1nc(NC(=O)c2cc(CNC(=O)C(C)C)cnc2C(F)F)[nH]c1-c1ccc(C(F)(F)F)cc1 | 0
Cc1c(CC(C)(C)C(=O)O)n(Cc2ccc(Cl)cc2)c2ccc(-c3ccc(-c4ccccc4)c(F)c3)cc12 | 46
Cc1nc(NC(=O)c2cc(CNC(=O)C(C)C)cnc2C(F)F)[nH]c1-c1ccc(Cl)cc1 | 0

CC(=O)NCc1cnc(C(F)F)c(C(=O)Nc2nc(C)c(-c3ccc(C(F)(F)F)cc3)[nH]2)c1 tested on CYP3A4 (Homo sapiens, UniProt P08684) gave inhibition at 10 µM: 19

CC(C)C(=O)NCc1cnc(C(F)F)c(C(=O)Nc2ncc(-c3ccc(Cl)cc3)[nH]2)c1 tested on CYP3A4 (Homo sapiens, UniProt P08684) gave inhibition at 10 µM: 22

CCC(=O)NCc1cnc(C(F)F)c(C(=O)Nc2nc(C)c(-c3ccc(C(F)(F)F)cc3)[nH]2)c1 tested on CYP3A4 (Homo sapiens, UniProt P08684) gave inhibition at 10 µM: 0
